Cited source for all entries: paper PMC6539525

Provide the reported pIC50 of each item.
- Tested on: A549 cells
- Test description: MTT cytotoxicity in A549 cells
- Type: cell-based
- Recorded conditions: Homo sapiens, A549, normoxia 96 h, read-out: IC50 A549 Normoxia
- Description: As the anti-neuroinflammatory agents for cancer patients, all newly synthesized compounds were evaluated in vitro for antitumor activity against human breast cancer cell line MDA-MB-231, colorectal cancer cells HT-29 and HCT-116, and lung cancer cell line A549 by using the standard MTT method, respectively. Doxorubicin (DOX) and DHA were used as the reference standard. […] Therefore, the in vitro cytotoxicity was evaluated in two different conditions (hypoxia and normoxia). […]
# pIC50 = -log10(concentration in molar units)

*Q* Item C[C@H]1[C@@H](OCc2cn(Cc3cc4cc(Cl)cc(Cl)c4oc3=O)nn2)O[C@@H]2O[C@@]3(C)CC[C@H]4[C@H](C)CC[C@@H]1[C@@]24OO3 has what recorded pIC50?
*A* 4.27

*Q* Would you mind telling me what pIC50 value was observed for Cc1ccc2oc(=O)cc(OCc3cn(CCCO[C@H]4O[C@@H]5O[C@@]6(C)CC[C@H]7[C@H](C)CC[C@@H]([C@H]4C)[C@@]57OO6)nn3)c2c1 ?
*A* 4.72

*Q* Param item = Cc1ccc2c(OCc3cn(CCCO[C@H]4O[C@@H]5O[C@@]6(C)CC[C@H]7[C@H](C)CC[C@@H]([C@H]4C)[C@@]57OO6)nn3)cc(=O)oc2c1C ; retrieve measured pIC50.
*A* 4.52

*Q* For Cc1cc(C)c2oc(=O)cc(OCc3cn(CCO[C@H]4O[C@@H]5O[C@@]6(C)CC[C@H]7[C@H](C)CC[C@@H]([C@H]4C)[C@@]57OO6)nn3)c2c1 , what is its reported pIC50?
*A* 5.57

*Q* # pIC50 lookup, item C[C@H]1[C@@H](OCc2cn(Cc3cc4cc(Cl)ccc4oc3=O)nn2)O[C@@H]2O[C@@]3(C)CC[C@H]4[C@H](C)CC[C@@H]1[C@@]24OO3
*A* 4.13

*Q* Endpoint output: pIC50 of Cc1ccc2c(OCc3cn(CCO[C@H]4O[C@@H]5O[C@@]6(C)CC[C@H]7[C@H](C)CC[C@@H]([C@H]4C)[C@@]57OO6)nn3)cc(=O)oc2c1C . Value?
*A* 5.68

*Q* Given the entry Cc1cccc2c(OCc3cn(CCCO[C@H]4O[C@@H]5O[C@@]6(C)CC[C@H]7[C@H](C)CC[C@@H]([C@H]4C)[C@@]57OO6)nn3)cc(=O)oc12 , report its measured pIC50.
*A* 4.11

*Q* Using the record for C[C@H]1[C@@H](OCCc2cn(Cc3cc4cc(Cl)cc(Cl)c4oc3=O)nn2)O[C@@H]2O[C@@]3(C)CC[C@H]4[C@H](C)CC[C@@H]1[C@@]24OO3 , report its pIC50.
*A* 4.02

*Q* Value lookup for pIC50; key = Cc1cccc2c(OCc3cn(CCO[C@H]4O[C@@H]5O[C@@]6(C)CC[C@H]7[C@H](C)CC[C@@H]([C@H]4C)[C@@]57OO6)nn3)cc(=O)oc12
*A* 4.30

*Q* Look up pIC50 for this compound: C[C@H]1[C@@H](OCCc2cn(Cc3cc4cc(Cl)ccc4oc3=O)nn2)O[C@@H]2O[C@@]3(C)CC[C@H]4[C@H](C)CC[C@@H]1[C@@]24OO3
*A* 4.06

*Q* Report pIC50 for Cc1ccc2c(OCc3cn(CCCO[C@H]4O[C@@H]5O[C@@]6(C)CC[C@H]7[C@H](C)CC[C@@H]([C@H]4C)[C@@]57OO6)nn3)cc(=O)oc2c1 please.
*A* 4.83

*Q* Can you share its pIC50? I mean this compound: C[C@H]1[C@@H](OCCCn2cc(COc3cc(=O)oc4ccccc34)nn2)O[C@@H]2O[C@@]3(C)CC[C@H]4[C@H](C)CC[C@@H]1[C@@]24OO3
*A* 4.27

*Q* So what's the measured pIC50 for this one? Cc1cc(C)c2c(OCc3cn(CCCO[C@H]4O[C@@H]5O[C@@]6(C)CC[C@H]7[C@H](C)CC[C@@H]([C@H]4C)[C@@]57OO6)nn3)cc(=O)oc2c1
*A* 5.16
